Test system: SF-268 CNS
Assay remarks: NCI tumour cell line growth inhibition, 48 h; in the data active = GI50 below about 0.43 µM; inactive = the rest
One label from this list, please: active, inactive

See these solved cases before continuing.
N#CC[C@H](C1CCCC1)n1cc(-c2ncnc3[nH]ccc23)cn1 = inactive
N#CSCC(=O)c1ccc(Cl)cc1 = inactive
COc1cnc2c(c1)C(=O)c1c-2n(CCCN2CCN(CCO)CC2)c(=O)c2cc([N+](=O)[O-])ccc12 = inactive
CON = inactive
CCCCCCC1N=C(N)N=C(N)N1c1ccc(Cl)cc1 (stereo not drawn) = inactive

Request: Please share the test call associated with `CCOc1cc(/C=N\NC(=O)N/N=C/c2ccc(O)c(OCC)c2)ccc1O` .
Response: inactive

Request: Please share the test call associated with CSc1ccc(C2=NN(C(=O)c3ccc(N)cc3)C(c3ccc(F)cc3)C2)cc1 (stereo not drawn) .
Response: inactive

Request: Please share the test call associated with `Cc1sc(/N=C2/NC(=O)CS2)nc1-c1nc(/N=C2/NC(=O)CS2)sc1C` .
Response: inactive

* * *

Test system: MALME-3M melanoma
Assay remarks: NCI tumour cell line growth inhibition, 48 h
Measured TGI of individual entries

CCOc1ccc(NC(=O)CCC(=O)NN)cc1 = > 100 µM
CC1C(=O)C23OC[C@@]1(C)C1(O)CC[C@@H](C)[C@]21CC3=O (some centres not stated) = > 100 µM
O=[N+]([O-])c1ccc(-c2ccccc2)c([As](=O)(O)O)c1 = 34.6 µM
O=C1CSC(/C=C/c2ccccc2)N1c1ccc(-n2c(-c3ccccc3)nc3ccccc3c2=O)cc1 (configuration not stated) = > 100 µM
CCc1ccccc1-n1c(N)c(C#N)c(-c2ccc(OC)c(OC)c2)c(C#N)c1=O = 40.4 µM
FC(F)(F)C1=NC(=NNc2nnc(-c3ccccc3)c(-c3ccccc3)n2)N=C(C(F)(F)F)C1 = > 100 µM

Request: Indicate its recorded TGI; the molecule in question is OC(c1ccccc1)c1c(-c2ccccc2)oc(-c2ccccc2)c1C(O)c1ccccc1 (configuration not stated)
Response: 25.4 µM

Request: Indicate its recorded TGI; the molecule in question is CC(O)=NC(Cc1ccc2ccccc2c1)C(O)=NC(Cc1ccc(Cl)cc1)C(O)=NC(Cc1c[nH]c2ccccc12)C(O)=NC(CO)C(O)=NC(Cc1ccc(O)cc1)C(O)=NC(CCCN=C(N)N)C(O)=NC(CC(C)C)C(O)=NC(CCCN=C(N)N)C(=O)N1CCCC1C(O)=NC(C)C(=N)O (configuration not stated)
Response: > 100 µM

Request: Indicate its recorded TGI; the molecule in question is `COc1cc(NCc2ccc3n2-c2ccccc2OC3)cc(OC)c1OC`
Response: 50.9 µM

Request: Indicate its recorded TGI; the molecule in question is `N#C/C(=C\c1ccc(O)cc1O)C(N)=O`
Response: > 100 µM

Request: Indicate its recorded TGI; the molecule in question is `CC(C)(C)C(=O)[CH-]C(=O)C(F)(F)C(F)(F)C(F)(F)F.CC(C)(C)C(=O)[CH-]C(=O)C(F)(F)C(F)(F)C(F)(F)F.[O-]CC1OC(O)C(O)C(O)C1O.[O-]CC1OC(O)C(O)C(O)C1O.[Ti+4]`
Response: > 100 µM

Request: Indicate its recorded TGI; the molecule in question is CC(C)N(C[C@H]1O[C@@H](n2cnc3c(N)ncnc32)[C@H](O)[C@@H]1O)C1CC(CCc2nc3ccc(C(C)(C)C)cc3[nH]2)C1 (some centres not stated)
Response: > 60.8 µM

Request: Indicate its recorded TGI; the molecule in question is `O=C(O)Cc1ccc2c(c1O)C(=O)c1c(ccc(CC(=O)O)c1O)C2=O`
Response: > 100 µM

Request: Indicate its recorded TGI; the molecule in question is `COc1ccc2[nH]c3c(C)c4cnccc4c(C)c3c2c1`
Response: 2.82 µM

* * *

Tested on: CCRF-CEM leukemia
Assay remarks: NCI tumour cell line growth inhibition, 48 h; in the data active = GI50 below about 0.43 µM; inactive = the rest
One label from this list, please: active, inactive

C[C@@H]1CN2[C@H]3[C@@H]1CC[C@]31CCC(=O)O[C@]1(C)[C@@H]1CC[C@H]3CCC=C3[C@@H]12 = inactive

Lab note: next compound to report on.
Request: Please share the test call associated with `N#CC(C#N)=Cc1ccc(-c2ccc(-c3nc4ccccc4o3)cc2)o1` .
Response: inactive

* * *

Tested on: DU-145 prostate
Assay remarks: NCI tumour cell line growth inhibition, 48 h
Measured TGI of individual entries

COC(=O)CCc1ccc2c(c1)CC1(C2)Cc2ccc3c(c2C1)CCC3 (stereo not given) = > 100 µM
COc1cc(/C=C/C(=O)c2ccc(Nc3nc(Nc4ccccc4)nc(Nc4ccc(Cl)cc4)n3)cc2)cc(OC)c1OC = > 32.5 µM
CCOc1cc(/C=N\NC(=O)N/N=C/c2ccc(O)c(OCC)c2)ccc1O = > 100 µM
C[C@@H](Oc1cc(-c2cnn(C3CC4(CCCNC4)C3)c2)cnc1N)c1c(Cl)ccc(F)c1Cl (stereo not given in full) = 6.92 µM

Here's the next entry for you.
Request: Indicate its recorded TGI; the compound in question is `COc1ccc(-n2cc(-c3ccc(OC)c(OC)c3)nc2SCc2ccccc2)cc1Cl`
Response: > 100 µM

* * *

Tested on: COLO 205 colon
Assay remarks: NCI tumour cell line growth inhibition, 48 h
Measured GI50 of individual entries

Some compounds with recorded GI50:
C[C@@H]1CN2[C@H]3[C@@H]1CC[C@]31CCC(=O)O[C@]1(C)[C@@H]1CC[C@H]3CCC=C3[C@@H]12 = > 70 µM
COc1cc(/C=C/C(=O)c2ccc(Nc3nc(Nc4ccccc4)nc(Nc4ccc(Cl)cc4)n3)cc2)cc(OC)c1OC = 8.55 µM

Request: Check COLO 205 colon data and give GI50 for `Cc1c(N2C(=O)/C(=C\c3ccc(N(C)C)cc3)N=C2c2ccccc2)c(=O)n(-c2ccccc2)n1C` .
Response: 43.7 µM

Request: Check COLO 205 colon data and give GI50 for `CCCCCc1c(C)[nH]c(/C=c2\[nH]/c(=C3/C=c4ccccc4=N3)cc2OC)c1C` .
Response: 0.0568 µM

Request: Check COLO 205 colon data and give GI50 for `CCOc1cc(/C=N\NC(=O)N/N=C/c2ccc(O)c(OCC)c2)ccc1O` .
Response: 3.85 µM

Request: Check COLO 205 colon data and give GI50 for `CCOC(=O)C(Cc1ccc(OC)cc1)C(=O)OCC` .
Response: 7.23 µM

Request: Check COLO 205 colon data and give GI50 for `COc1cnc2c(c1)C(=O)c1c-2n(CCCN2CCN(CCO)CC2)c(=O)c2cc([N+](=O)[O-])ccc12` .
Response: 1.18 µM

* * *

Test system: NCI-H522 lung
Assay remarks: NCI tumour cell line growth inhibition, 48 h
Kindly note that classification relies on TGI with these boundaries: low (below 3 µM), intermediate (3 µM to below 30 µM), high (30 µM or more)

See these solved cases before continuing.
O=c1c2ncn(CCCl)c2n(-c2ccccc2)c(=S)n1-c1ccccc1 = high
CC12C(=O)N(CCN)C(=O)C1C1c3ccccc3C2c2ccccc21 (configuration not stated) = high
CCOC(=O)[C@H]1C[C@]23CN(C(=O)OC(C)(C)C)CC[C@H]2CCC2(SCCCS2)[C@@H]3N1C = high
Cc1cc(C)c2[s+]snc2c1 = high
COc1c2ccoc2c(S(=O)(=O)Nc2ccc(Cl)cc2)c2oc(C)cc(=O)c12 = high
CCCCCc1c(C)[nH]c(/C=c2\[nH]/c(=C3/C=c4ccccc4=N3)cc2OC)c1C = low

Request: // return the class label for CC(C)NC(=O)O/N=C1\CCC2[C@@H]3CC=C4C[C@@H](OC(=O)NC(C)C)CC[C@]4(C)C3CC[C@]12C (some centres not stated)
Response: intermediate

Request: // return the class label for `Oc1[nH]c2ccccc2c1N=NC(=S)N1CCCC1`
Response: high

Request: // return the class label for OC1C2C=CCC1CCC2 (configuration not stated)
Response: high

Request: // return the class label for CCOc1ccc2c(c1)NC(=O)C(C1OC(c3ccccc3)=CC1=O)S2 (configuration not stated)
Response: intermediate

Request: // return the class label for `CCOC(=O)CCc1c(C)[nH]c2c(C)c3c([nH]c4ccc(Cl)cc43)c(C)c2c1=O`
Response: intermediate

Request: // return the class label for Cc1cc(Br)cc(C)c1NC(=O)C(=O)C1C(=O)C(CC2C(=O)c3ccccc3C2=O)C(=O)CC1(C)C (configuration not stated)
Response: high

Request: // return the class label for `C1=c2ccccc2=C2C(=C(c3ccccc3)C(c3ccccc3)=NN2c2ccccc2)S1`
Response: high

Request: // return the class label for COc1ccc(C2C(Cl)C(=O)N2NC(=O)c2ccc(N)cc2)cc1OC (configuration not stated)
Response: intermediate

* * *

Tested on: NCI-H460 lung
Assay remarks: NCI tumour cell line growth inhibition, 48 h
Measured TGI of individual entries
Number in µM, nothing else.

Some molecules with recorded TGI:
COc1cnc2c(c1)C(=O)c1c-2n(CCCN2CCN(CCO)CC2)c(=O)c2cc([N+](=O)[O-])ccc12 = 1.45
CO[C@@]12CC(=O)/C(=C(O)\C=C\c3ccccc3)C(=O)[C@]1(OC)Cc1ccccc1O2 = 88.1
O=C(Nc1cc(Cl)c(Cl)cc1Cl)C(=O)C(C(=O)c1ccc2ccccc2c1)C1OC(=O)c2ccccc21 (stereo not given) = 25.9
O=c1cc(-c2nc3ccccc3[nH]2)[nH]c2nc(-c3nc4ccccc4[nH]3)cc(-c3ccc(Cl)cc3)c12 = 43.6

Here's the next entry for you.
Request: Indicate its recorded TGI; the molecule in question is `CCOC(=O)c1c(C(F)(F)F)oc2c1ccc1nc3nonc3nc12`
Response: 49.6

Cited source: PubChem BioAssay (NCI)
